Species on record: Mus musculus
Assay: Compound was evaluated for the inhibition of isolation-induced aggression at a threshold of, 90 seconds
Assay type: functional
observable: ED50

Past entries and their recorded results:
chemical_smiles=Cc1ccc2c(C3CCN(CCN4CCN(C(C)C)C4=O)CC3)cn(-c3ccccc3)c2c1 observed_measurement="> 11 µmol/kg"
chemical_smiles=CC(C)N1CCN(CCN2CCC(c3cn(-c4ccc(F)cc4)c4cc(Cl)ccc34)CC2)C1=O observed_measurement="2.3 µmol/kg"
chemical_smiles=CNC(=O)N(C)CCN1CCC(c2cn(-c3ccc(F)cc3)c3cc(Cl)ccc23)CC1 observed_measurement="> 23 µmol/kg"

ED50 measured on CC(C)NC(=O)N(C)CCN1CCC(c2cn(-c3ccc(F)cc3)c3cc(Cl)ccc23)CC1 = > 21 µmol/kg

----------
Organism: Mus musculus
Experiment: Compound was evaluated for the inhibition of isolation-induced aggression at a threshold of 180 seconds
Type: functional
observable: ED50 (µmol/kg)
The response must be a number in µmol/kg with no trailing unit.

chemical_smiles=CC(C)N1CCN(CCN2CCC(c3cn(-c4ccc(F)cc4)c4cc(Cl)ccc34)CC2)C1=O observed_measurement=2

What the record says about Cc1ccc2c(C3CCN(CCN4CCN(C(C)C)C4=O)CC3)cn(-c3ccc(F)cc3)c2c1 : ED50 is 7.3

----------
Target: Serotonin 2 (5-HT2) receptor (Rattus norvegicus, UniProt P30994+P08909+P14842)
Assay: Displacement of [3H]ketanserin from 5-hydroxytryptamine 2 receptor from rat cortical membranes.
Type: cell membranes, Membrane
Listing of recorded log10(IC50) by entry.
Transform log10 | Measure IC50 | Unit nM

chemical_smiles=O=C1NCCN1CCN1CCC(c2cn(-c3ccc(F)cc3)c3cc(Cl)ccc23)CC1 observed_measurement=0.15
chemical_smiles=O=C1NCCN1CCN1CCC(c2cn(-c3ccc(F)cc3)c3cc(C(F)(F)F)ccc23)CC1 observed_measurement=0.23

Summary for this compound, Cc1ccc2c(C3CCN(CCN4CCN(C(C)C)C4=O)CC3)cn(-c3ccc(F)cc3)c2c1 : log10(IC50) is 0.20

The recorded log10(IC50) for entry Cc1ccc2c(C3CCN(CCN4CCN(C(C)C)C4=O)CC3)c[nH]c2c1 equals 1.78

response.value for CC(C)N1CCN(CCN2CCC(c3cn(-c4ccc(F)cc4)c4cc(C(F)(F)F)ccc34)CC2)C1=O (field: log10(IC50)) = 0.46

----------
Biological target: UniProt:P61169
Sequence (P61169 whole entry): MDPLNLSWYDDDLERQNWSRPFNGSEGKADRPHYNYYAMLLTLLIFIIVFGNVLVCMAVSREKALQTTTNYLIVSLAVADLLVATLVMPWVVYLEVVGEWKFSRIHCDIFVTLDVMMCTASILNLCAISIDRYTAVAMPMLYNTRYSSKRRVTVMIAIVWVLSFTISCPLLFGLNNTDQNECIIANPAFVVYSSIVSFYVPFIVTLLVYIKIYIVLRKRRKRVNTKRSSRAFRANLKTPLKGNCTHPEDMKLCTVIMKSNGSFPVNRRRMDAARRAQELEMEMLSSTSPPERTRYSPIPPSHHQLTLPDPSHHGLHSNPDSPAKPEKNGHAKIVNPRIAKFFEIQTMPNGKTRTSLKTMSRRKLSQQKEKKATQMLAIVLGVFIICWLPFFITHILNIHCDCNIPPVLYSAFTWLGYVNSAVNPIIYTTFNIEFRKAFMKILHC
Assay: Displacement of [3H]-spiperone from Dopamine receptor D2 from rat striatal membranes
Response field class: string, computed from recorded IC50 by ranges one (below 40 nM), two (40 nM to below 200 nM), three (200 nM or more)

Q: Returns: class label. Input: Cc1ccc2c(C3CCN(CCN4CCN(C(C)C)C4=O)CC3)c[nH]c2c1
Result: three

Q: Field: class (IC50) — entry: CC(C)N1CCN(CCN2CCC(c3cn(-c4ccc(F)cc4)c4cc(F)ccc34)CC2)C1=O
Result: one

Q: Lab note: sort Cc1ccc2c(C3CCN(CCNC(=O)N(C)C)CC3)cn(-c3ccc(F)cc3)c2c1 into the matching IC50 band.
Result: one

Q: Returns: class label. Input: CNC(=O)N(C)CCN1CCC(c2cn(-c3ccc(F)cc3)c3cc(Cl)ccc23)CC1
Result: two

Q: Note: place this compound into its band. Item: O=C1NCCN1CCN1CCC(c2cn(-c3ccc(F)cc3)c3cc(C(F)(F)F)ccc23)CC1
Result: three

Q: Hello team, could you let me know which band the following compound falls into: O=C1NCCN1CCN1CCC(c2cn(-c3ccc(F)cc3)c3cc(F)ccc23)CC1
Result: one

Q: Hey, which category is CN(C)C(=O)NCCN1CCC(c2cn(-c3ccc(F)cc3)c3cc(Cl)ccc23)CC1 in, do you know?
Result: one

Q: Consider CC(C)NC(=O)N(C)CCN1CCC(c2cn(-c3ccc(F)cc3)c3cc(Cl)ccc23)CC1 . To which IC50 class does it belong?
Result: two

----------
Listed compounds paired with reported IC50
Target: Adrenergic receptor alpha-1 (Rattus norvegicus, UniProt P15823+P23944+P43140)
Test: Displacement of [3H]prazosin from Alpha-1 adrenergic receptor of whole rat brain membranes
Format: cell membranes, Membrane
# output: numeric value plus its unit

chemical_smiles=Cc1ccc2c(C3CCN(CCN4CCN(C(C)C)C4=O)CC3)cn(-c3ccccc3F)c2c1 measured_on="Adrenergic receptor alpha-1 (Rattus norvegicus, UniProt P15823+P23944+P43140)" observed_measurement="370 nM"
chemical_smiles=CNC(=O)N(C)CCN1CCC(c2cn(-c3ccc(F)cc3)c3cc(Cl)ccc23)CC1 measured_on="Adrenergic receptor alpha-1 (Rattus norvegicus, UniProt P15823+P23944+P43140)" observed_measurement="16 nM"
chemical_smiles=O=C1NCCN1CCN1CCC(c2cn(-c3ccc(F)cc3)c3ccc(Cl)cc23)CC1 measured_on="Adrenergic receptor alpha-1 (Rattus norvegicus, UniProt P15823+P23944+P43140)" observed_measurement="3.4 nM"
chemical_smiles=Cc1ccc2c(C3CCN(CCN4CCN(C(C)C)C4=O)CC3)cn(-c3cccc(F)c3)c2c1 measured_on="Adrenergic receptor alpha-1 (Rattus norvegicus, UniProt P15823+P23944+P43140)" observed_measurement="670 nM"
chemical_smiles=CC(C)N1CCN(CCN2CCC(c3cn(-c4ccc(F)cc4)c4cc(Cl)ccc34)CC2)C1=O measured_on="Adrenergic receptor alpha-1 (Rattus norvegicus, UniProt P15823+P23944+P43140)" observed_measurement="70 nM"

The reported IC50 value, Adrenergic receptor alpha-1 (Rattus norvegicus, UniProt P15823+P23944+P43140), for CN(C)C(=O)NCCN1CCC(c2cn(-c3ccc(F)cc3)c3cc(Cl)ccc23)CC1 reads 29 nM

Bench note, Adrenergic receptor alpha-1 (Rattus norvegicus, UniProt P15823+P23944+P43140): O=C1NCCN1CCN1CCC(c2cn(-c3ccc(F)cc3)c3cc(F)ccc23)CC1 , IC50 reads 2.2 nM

Assay Adrenergic receptor alpha-1 (Rattus norvegicus, UniProt P15823+P23944+P43140), sample Cc1ccc2c(C3CCN(CCN4CCN(C(C)C)C4=O)CC3)cn(-c3ccc(F)cc3)c2c1 , IC50 read: 85 nM

IC50 for Adrenergic receptor alpha-1 (Rattus norvegicus, UniProt P15823+P23944+P43140) with input Cc1c(C2=CCN(CCN3CCNC3=O)CC2)c2ccccc2n1-c1ccc(F)cc1 equals 23 nM

----------
Target: Adrenergic receptor alpha-1 (Rattus norvegicus, UniProt P15823+P23944+P43140)
Experiment: Displacement of [3H]prazosin from Alpha-1 adrenergic receptor of whole rat brain membranes
Assay type: cell membranes, Membrane
IC50 strictly less than 90 nM = label 1. Otherwise label 0.

chemical_smiles=CC(C)N1CCN(CCN2CCC(c3cn(-c4ccccc4F)c4cc(Cl)ccc34)CC2)C1=O answer_label="label 0"
chemical_smiles=CC(C)N1CCN(CCN2CCC(c3c[nH]c4cc(Cl)ccc34)CC2)C1=O answer_label="label 1"
chemical_smiles=Cc1ccc2c(C3CCN(CCN4CCN(C(C)C)C4=O)CC3)c[nH]c2c1 answer_label="label 1"

Okay, now this compound:
Q: Hi there! Is IC50 for CC(C)c1ccc2c(C3CCN(CCN4CCN(C(C)C)C4=O)CC3)cn(-c3ccc(F)cc3)c2c1 below 90 nM, do you know?
Result: label 0

----------
The entries below are paired with their reported IC50.
Biological target: Serotonin 2 (5-HT2) receptor (Rattus norvegicus, UniProt P30994+P08909+P14842)
Assay: Displacement of [3H]ketanserin from 5-hydroxytryptamine 2 receptor from rat cortical membranes.
Type: cell membranes, Membrane

chemical_smiles=CC(C)N1CCN(CCN2CCC(c3cn(-c4ccc(F)cc4)c4cc(F)ccc34)CC2)C1=O observed_measurement="1.3 nM"

Item Cc1ccc2c(C3CCN(CCNC(=O)N(C)C)CC3)cn(-c3ccc(F)cc3)c2c1 was tested on Serotonin 2 (5-HT2) receptor (Rattus norvegicus, UniProt P30994+P08909+P14842); the reported IC50 is 2.6 nM

Measured IC50 (Serotonin 2 (5-HT2) receptor (Rattus norvegicus, UniProt P30994+P08909+P14842)), entry O=C1NCCN1CCN1CCC(c2cn(-c3ccc(F)cc3)c3ccccc23)CC1 : 0.72 nM

The compound Cc1ccc2c(C3CCN(CCN4CCNC4=O)CC3)cn(-c3ccc(F)cc3)c2c1 on Serotonin 2 (5-HT2) receptor (Rattus norvegicus, UniProt P30994+P08909+P14842): IC50 was 0.82 nM

Bench note, Serotonin 2 (5-HT2) receptor (Rattus norvegicus, UniProt P30994+P08909+P14842): entry CC(C)N1CCN(CCN2CCC(c3c[nH]c4cc(Cl)ccc34)CC2)C1=O , its IC50 = 66 nM

Item Cc1ccc2c(C3CCN(CCNC(=O)NC(C)C)CC3)cn(-c3ccc(F)cc3)c2c1 was tested on Serotonin 2 (5-HT2) receptor (Rattus norvegicus, UniProt P30994+P08909+P14842); the reported IC50 is 1.8 nM

Serotonin 2 (5-HT2) receptor (Rattus norvegicus, UniProt P30994+P08909+P14842) assay, compound CC(C)c1ccc2c(C3CCN(CCN4CCN(C(C)C)C4=O)CC3)cn(-c3ccc(F)cc3)c2c1 , recorded IC50 = 16 nM

Record for Cc1ccc2c(C3CCN(CCN4CCN(C(C)C)C4=O)CC3)cn(-c3ccccc3)c2c1 under target or system Serotonin 2 (5-HT2) receptor (Rattus norvegicus, UniProt P30994+P08909+P14842): IC50 reported as 2 nM

Considering CC(C)NC(=O)N(C)CCN1CCC(c2cn(-c3ccc(F)cc3)c3cc(Cl)ccc23)CC1 , its IC50 with Serotonin 2 (5-HT2) receptor (Rattus norvegicus, UniProt P30994+P08909+P14842) was recorded as 2.2 nM

IC50 for Serotonin 2 (5-HT2) receptor (Rattus norvegicus, UniProt P30994+P08909+P14842) with input Cc1ccc2c(C3CCN(CCN4CCN(C(C)C)C4=O)CC3)cn(-c3ccccc3F)c2c1 equals 2.5 nM

Lab entry: Serotonin 2 (5-HT2) receptor (Rattus norvegicus, UniProt P30994+P08909+P14842) assay, compound CC(C)N1CCN(CCN2CCC(c3cn(-c4ccc(F)cc4)c4cc(Cl)ccc34)CC2)C1=O , IC50 = 1.5 nM
